Just for reference, patent US6322962A is where these values come from.

Molecular target: purified S1P(983)-C (Cricetulus griseus, UniProt Q9Z2A8, T875N)
Construct: Truncated S1P (amino acids 1-983); GGR linker (NotI site); made in house; host or cells: SRD-12B cells (mutant CHO cells lacking S1P) stably transfected with pCMV-S1P(983)-Myc-His (TR-3117, 'S1P(983) cells'); secreted into the medium and purified on Ni-NTA
Sequence (Q9Z2A8 187-983 T875N): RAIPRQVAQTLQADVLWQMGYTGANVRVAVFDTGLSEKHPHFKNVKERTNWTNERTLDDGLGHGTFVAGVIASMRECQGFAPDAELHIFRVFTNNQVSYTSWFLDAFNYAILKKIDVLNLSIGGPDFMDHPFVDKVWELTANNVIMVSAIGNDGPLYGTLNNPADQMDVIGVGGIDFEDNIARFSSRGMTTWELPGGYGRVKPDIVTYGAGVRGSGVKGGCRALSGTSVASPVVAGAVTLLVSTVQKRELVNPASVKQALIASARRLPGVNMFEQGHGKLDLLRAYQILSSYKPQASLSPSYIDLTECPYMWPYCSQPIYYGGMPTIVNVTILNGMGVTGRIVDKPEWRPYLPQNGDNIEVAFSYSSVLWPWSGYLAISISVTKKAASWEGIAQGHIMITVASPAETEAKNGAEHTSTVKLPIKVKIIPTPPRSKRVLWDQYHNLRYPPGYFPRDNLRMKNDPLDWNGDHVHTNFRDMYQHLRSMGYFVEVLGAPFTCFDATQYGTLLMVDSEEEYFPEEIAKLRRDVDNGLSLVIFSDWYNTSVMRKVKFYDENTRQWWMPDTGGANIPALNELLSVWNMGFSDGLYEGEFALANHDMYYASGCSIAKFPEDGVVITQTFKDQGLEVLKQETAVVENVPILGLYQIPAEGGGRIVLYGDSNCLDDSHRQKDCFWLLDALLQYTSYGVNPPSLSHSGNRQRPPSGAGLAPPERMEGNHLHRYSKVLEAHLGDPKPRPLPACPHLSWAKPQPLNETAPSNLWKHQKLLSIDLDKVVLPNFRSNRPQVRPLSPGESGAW
Assay: Effect of protease inhibitors on S1P(983)-C mediated cleavage of Ac-VFRSLK-MCA
Format: biochemical, hamster
Settings: result in words
Square brackets hold non-standard residues; d marks the D form. Peptide text beside a SMILES is read from it. * marks the point of attachment. Sta = CC(C)C[C@H](N)[C@@H](O)CC(=O)O; Isovaleryl = CC(C)CC(=O)*; Nle = CCCC[C@H](N)C(=O)O
result_type: inhibition of S1P(983)-C

O=C(O)CN(CCOCCOCCN(CC(=O)O)CC(=O)O)CC(=O)O [EGTA] ... partially inhibited
O=S(=O)(F)Cc1ccccc1 [PMSF, phenylmethylsulfonyl fluoride] ... resisted
CC(=O)N[C@@H](CC(C)C)C(=O)N[C@@H](CC(C)C)C(=O)N[C@H](C=O)CCCNC(=N)N [Leupeptin] ... resistant
N=C(N)c1ccc(CS(=O)(=O)F)cc1 [APMSF] ... resisted
CC(C)CC(=O)N[C@H](C(=O)N[C@H](C(=O)N[C@@H](CC(C)C)[C@@H](O)CC(=O)N[C@@H](C)C(=O)N[C@@H](CC(C)C)[C@@H](O)CC(=O)O)C(C)C)C(C)C [Pepstatin] (Isovaleryl-VV[Sta]A[Sta]-OH) ... resistant
c1cnc2c(c1)ccc1cccnc12 [1,10-Phenanthroline, 1,10-phenanthroline] ... partially inhibited

Lab note: next molecule to report on.
Query: Which value of inhibition of S1P(983)-C has been reported for CCCC[C@@H](C=O)NC(=O)[C@H](CC(C)C)NC(=O)[C@H](CC(C)C)NC(C)=O [ALLN, N-acetyl-leucinal-leucinal-norleucinal] (Ac-Leu-Leu-[Nle]-aldehyde) in the records?
Reply: resistant

---

Record form. Attribute: Relative Activity. Fill in for each entry.
target: purified S1P(983)-C (Cricetulus griseus, UniProt Q9Z2A8, T875N); construct: Truncated S1P (amino acids 1-983); GGR linker (NotI site); made in house; host or cells: SRD-12B cells (mutant CHO cells lacking S1P) stably transfected with pCMV-S1P(983)-Myc-His (TR-3117, 'S1P(983) cells'); secreted into the medium and purified on Ni-NTA; experiment: Fluorogenic peptide assay for S1P activity (cleavage of MCA-conjugated peptides); assay type: biochemical, hamster; details: 100 μM peptide-MCA, 3 μg S1P(983)-C, 37° C., 5 h; Ac-VFRSLK-MCA set at 1.0
Peptide text beside a SMILES is read from it. * marks the point of attachment. AMC = Cc1cc(=O)oc2cc(N*)ccc12; Boc = CC(C)(C)OC(=O)*

Illustrative cases are given below, each with its answer.
CC(=O)N[C@H](C(=O)N[C@@H](Cc1ccccc1)C(=O)N[C@@H](CCCNC(=N)N)C(=O)N[C@@H](CO)C(=O)N[C@@H](CCCNC(=N)N)C(=O)N[C@@H](CCCNC(=N)N)C(=O)Nc1ccc2c(C)cc(=O)oc2c1)C(C)C [Ac-VFRSRR-MCA, Ac-Val-Phe-Arg-Ser-Arg-Arg-MCA] (Ac-VFRSRR-{AMC}) ... < 0.1
CC(=O)N[C@@H](CCCNC(=N)N)C(=O)N[C@@H](CO)C(=O)N[C@@H](CC(C)C)C(=O)N[C@@H](CCCCN)C(=O)Nc1ccc2c(C)cc(=O)oc2c1 [Ac-RSLK-MCA, Ac-Arg-Ser-Leu-Lys-MCA] (Ac-RSLK-{AMC}) ... 0.47
CC(=O)N[C@@H](CO)C(=O)NCC(=O)N[C@@H](CCCNC(=N)N)C(=O)N[C@@H](CO)C(=O)N[C@H](C(=O)N[C@@H](CC(C)C)C(=O)Nc1ccc2c(C)cc(=O)oc2c1)C(C)C [Ac-SGRSVL-MCA, Ac-Ser-Gly-Arg-Ser-Val-Leu-MCA] (Ac-SGRSVL-{AMC}) ... < 0.1
CC(=O)N[C@@H](CO)C(=O)NCC(=O)N[C@@H](CO)C(=O)NCC(=O)N[C@@H](CCCNC(=N)N)C(=O)N[C@@H](CO)C(=O)N[C@H](C(=O)N[C@@H](CC(C)C)C(=O)Nc1ccc2c(C)cc(=O)oc2c1)C(C)C (Ac-SGSGRSVL-{AMC}) ... < 0.1
Cc1cc(=O)oc2cc(NC(=O)[C@H](CCCNC(=N)N)NC(=O)[C@H](CCCNC(=N)N)NC(=O)[C@@H](NC(=O)[C@H](CCCNC(=N)N)NC(=O)OC(C)(C)C)C(C)C)ccc12 [Boc-RVRR-MCA, Boc-Arg-Val-Arg-Arg-MCA] (Boc-RVRR-{AMC}) ... < 0.1
CC(=O)N[C@H](C(=O)N[C@@H](Cc1ccccc1)C(=O)N[C@@H](CCCNC(=N)N)C(=O)N[C@@H](CO)C(=O)N[C@@H](CC(C)C)C(=O)N[C@@H](CCCCN)C(=O)Nc1ccc2c(C)cc(=O)oc2c1)C(C)C [Ac-VFRSLK-MCA, Ac-Val-Phe-Arg-Ser-Leu-Lys-MCA] (Ac-VFRSLK-{AMC}) ... 1.0

List the reported Relative Activity of each compound below.
1. CC(=O)N[C@H](C(=O)N[C@@H](Cc1ccccc1)C(=O)N[C@@H](C)C(=O)N[C@@H](CO)C(=O)N[C@@H](CC(C)C)C(=O)N[C@@H](CCCCN)C(=O)Nc1ccc2c(C)cc(=O)oc2c1)C(C)C [Ac-VFASLK-MCA, Ac-Val-Phe-Ala-Ser-Leu-Lys-MCA] (Ac-VFASLK-{AMC})
2. CC(=O)N[C@@H](CCCNC(=N)N)C(=O)N[C@@H](CO)C(=O)N[C@H](C(=O)N[C@@H](CC(C)C)C(=O)Nc1ccc2c(C)cc(=O)oc2c1)C(C)C [Ac-RSVL-MCA, Ac-Arg-Ser-Val-Leu-MCA] (Ac-RSVL-{AMC})

Reply:
["< 0.1", "< 0.1"]

---

biological target: purified S1P(983)-C (Cricetulus griseus, UniProt Q9Z2A8, T875N); construct: Truncated S1P (amino acids 1-983); GGR linker (NotI site); made in house; host or cells: SRD-12B cells (mutant CHO cells lacking S1P) stably transfected with pCMV-S1P(983)-Myc-His (TR-3117, 'S1P(983) cells'); secreted into the medium and purified on Ni-NTA; experiment: Effect of protease inhibitors on S1P(983)-C mediated cleavage of Ac-VFRSLK-MCA; format: biochemical, hamster; conditions: 10 mM; 100 μM Ac-VFRSLK-MCA, 37° C., 5 h
result_type: AMC Liberated (pmol/tube)
Numbers only, in pmol/tube.

NCCc1ccc(S(=O)(=O)F)cc1 ... 60
c1cnc2c(c1)ccc1cccnc12 ... 253
O=S(=O)(F)Cc1ccccc1 [PMSF, phenylmethylsulfonyl fluoride] ... 690

Query: Which value of AMC Liberated has been reported for O[C@H](CS)[C@H](O)CS (racemic) in the records?
Reply: 99
